B1: TPR t1 (parent)
chain: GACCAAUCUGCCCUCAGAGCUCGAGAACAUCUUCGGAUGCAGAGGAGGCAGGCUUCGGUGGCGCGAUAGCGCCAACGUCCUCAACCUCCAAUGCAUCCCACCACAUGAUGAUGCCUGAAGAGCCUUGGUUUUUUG

# Variants of: B1
# test_summary: polymerase ribozyme fitness, log enrichment relative to wild type (log ratio); higher = more active; in vitro selection for triplet polymerase activity
A collection of variants and their measured polymerase ribozyme fitness (log ratio)
The answer should be written as a number, with no unit following it.

// below: answered variants
What value of polymerase ribozyme fitness (log ratio) has been reported for the following variant? U59A C123G 2

Look up polymerase ribozyme fitness (log ratio): G52U G61U -0.708

Given the variant C3A C104U , what is its reported polymerase ribozyme fitness (log ratio)? -0.516

Reported polymerase ribozyme fitness (log ratio), variant G44C U54A C82U C114G : ____ -4.01

Record request: polymerase ribozyme fitness (log ratio) value, item G77C G110U -1.93

For the next question, use this variant.
Item C72U U78G C115U U116C has what recorded polymerase ribozyme fitness (log ratio)? -2.31
